assay: Metabolic stability in mouse liver microsomes assessed as hepatic blood flow; assay type: ADME, Microsome; details: read-out: QH
quantityName: hepatic extraction ratio
// return a plain number; no unit text

Answered examples (5):
compound	hepatic extraction ratio
COCCn1cnc2ccc(NC(=O)Nc3cccc(OC)c3)cc2c1=O	0.231
COCCn1cnc2ccc(NC(=O)Nc3cccc(C(C)=O)c3)cc2c1=O	0.181
COCCn1c(=O)c2cc(NC(=O)Nc3cccc(C(C)=O)c3)ccc2n(CCN2CCCC2)c1=O	0.26
COCCn1cnc2ccc(NC(=O)Nc3cccc(C(C)=O)c3)c(-c3ccc(F)cc3)c2c1=O	0.925
COCCn1cnc2ccc(NC(=O)Nc3cccc(C(=O)C(F)(F)F)c3)cc2c1=O	0.183

Q: Query hepatic extraction ratio for COCCn1cnc2ccc(NC(=O)Nc3cccc(C(O)C(F)(F)F)c3)cc2c1=O (stereo not given)
Result: 0.462

Q: Determine its reported hepatic extraction ratio: `COCCn1cnc2ccc(NC(=O)Nc3cccc(C(C)=O)c3)c(Br)c2c1=O`
Result: 0.167

Q: Please look at this compound and report its hepatic extraction ratio: `COCCn1c(=O)[nH]c2ccc(NC(=O)Nc3cccc(C(C)=O)c3)cc2c1=O`
Result: 0.228

Q: Consider the compound `COCCn1c(=O)c2cc(NC(=O)Nc3cccc(C(C)=O)c3)ccc2n(CCN2CCCCC2)c1=O` and give its recorded hepatic extraction ratio.
Result: 0.605

Q: Report hepatic extraction ratio for `COCCn1c(=O)c2cc(NC(=O)Nc3cccc(C(C)=O)c3)ccc2n(C(C)C)c1=O`
Result: 0.536
